# assayInfo: Bioavailability was reported
# Assay type: ADME, organism-based
# conditionDescription: rat, in vivo
readoutLabel: bioavailability (%)
Answer format: numeric, % implied, no suffix.

Problem: Quick one: bioavailability of N[C@H]1CC[C@H](CNC(=O)[C@@H]2CC[C@H]3CN(S(=O)(=O)CC(c4ccccc4)c4ccccc4)CC(=O)N32)CC1 ?
Result: 1.5

* * *

# Test system: Rattus norvegicus
# assayInfo: Activated partial thromboplastin time was determined after (iv) bolus dose of 0.75 mg/kg followed by an infusion of 50 ug/kg/min in rat arterial thrombosis model
# Format: functional
Listed here: items and their measured aPTT.
Answer format: numeric, s implied, no suffix.

Study these solved cases before continuing.
[
  {
    "recordSmiles": "N=C(N)c1ccc(CNC(=O)[C@@H]2CC[C@H]3CN(S(=O)(=O)C(c4ccccc4)c4ccccc4)CC(=O)N32)cc1",
    "assaySystem": "Rattus norvegicus",
    "unitAbbreviation": "s",
    "aPTT": 54
  },
  {
    "recordSmiles": "N=C(N)[C@H]1CC[C@H](CNC(=O)[C@@H]2CC[C@H]3CN(S(=O)(=O)C(c4ccccc4)c4ccccc4)CC(=O)N32)CC1",
    "assaySystem": "Rattus norvegicus",
    "unitAbbreviation": "s",
    "aPTT": 54
  },
  {
    "recordSmiles": "Cc1nc(N)ccc1CNC(=O)[C@@H]1CC[C@H]2CN(S(=O)(=O)C(c3ccccc3)c3ccccc3)CC(=O)N21",
    "assaySystem": "Rattus norvegicus",
    "unitAbbreviation": "s",
    "aPTT": 27
  }
]

Problem: Form: Entry = N[C@H]1CC[C@H](CNC(=O)[C@@H]2CC[C@H]3CN(S(=O)(=O)CC(c4ccccc4)c4ccccc4)CC(=O)N32)CC1 | System = Rattus norvegicus | aPTT = ____
Result: 35

Problem: Note, next up: N/C(=N/O)N1CCC(CNC(=O)[C@@H]2CC[C@H]3CN(S(=O)(=O)C(c4ccccc4)c4ccccc4)CC(=O)N32)CC1
Result: 28

Problem: Note, next up: N/C(=N/O)N1CCC(CNC(=O)[C@@H]2CC[C@H]3CN(S(=O)(=O)CCc4ccccc4)CC(=O)N32)CC1
Result: 25

Problem: Note, next up: N=C(N)c1ccc(CNC(=O)[C@@H]2CC[C@H]3CN(S(=O)(=O)CC(c4ccccc4)c4ccccc4)CC(=O)N32)cc1
Result: 74

Problem: Note, next up: N=C(N)N1CCC(CNC(=O)[C@@H]2CC[C@H]3CN(C(=O)CC(c4ccccc4)c4ccccc4)CC(=O)N32)CC1
Result: 29
